- system_tested: Nuclear factor NF-kappa-B complex (Homo sapiens) (UniProt Q00653+P19838+Q04206)
- Sequence (P19838 whole entry, looked up): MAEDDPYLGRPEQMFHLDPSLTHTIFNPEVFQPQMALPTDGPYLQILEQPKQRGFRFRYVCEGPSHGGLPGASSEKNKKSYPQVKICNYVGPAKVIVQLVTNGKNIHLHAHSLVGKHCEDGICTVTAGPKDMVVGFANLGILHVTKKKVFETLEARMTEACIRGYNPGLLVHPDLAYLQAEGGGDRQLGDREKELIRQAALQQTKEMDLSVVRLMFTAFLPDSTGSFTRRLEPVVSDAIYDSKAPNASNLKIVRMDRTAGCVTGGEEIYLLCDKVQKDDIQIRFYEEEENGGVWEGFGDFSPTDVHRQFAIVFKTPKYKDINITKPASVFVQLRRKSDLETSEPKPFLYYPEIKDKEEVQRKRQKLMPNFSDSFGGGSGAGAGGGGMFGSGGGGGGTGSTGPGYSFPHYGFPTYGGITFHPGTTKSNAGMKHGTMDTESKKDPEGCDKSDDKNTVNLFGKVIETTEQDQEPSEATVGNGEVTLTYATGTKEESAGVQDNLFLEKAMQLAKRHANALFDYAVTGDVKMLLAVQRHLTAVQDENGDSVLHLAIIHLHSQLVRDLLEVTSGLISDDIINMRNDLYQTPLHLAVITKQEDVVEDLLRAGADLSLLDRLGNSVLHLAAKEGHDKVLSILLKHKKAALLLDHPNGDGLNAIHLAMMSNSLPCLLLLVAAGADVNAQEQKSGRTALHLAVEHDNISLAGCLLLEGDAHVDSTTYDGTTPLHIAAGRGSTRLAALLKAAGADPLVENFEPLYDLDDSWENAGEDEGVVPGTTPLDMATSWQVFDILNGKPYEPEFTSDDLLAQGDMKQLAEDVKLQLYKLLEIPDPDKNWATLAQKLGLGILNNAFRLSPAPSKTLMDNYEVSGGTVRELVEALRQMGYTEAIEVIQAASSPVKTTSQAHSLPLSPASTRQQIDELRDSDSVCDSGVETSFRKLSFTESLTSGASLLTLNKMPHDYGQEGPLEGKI
- Sequence (Q00653 whole entry, looked up): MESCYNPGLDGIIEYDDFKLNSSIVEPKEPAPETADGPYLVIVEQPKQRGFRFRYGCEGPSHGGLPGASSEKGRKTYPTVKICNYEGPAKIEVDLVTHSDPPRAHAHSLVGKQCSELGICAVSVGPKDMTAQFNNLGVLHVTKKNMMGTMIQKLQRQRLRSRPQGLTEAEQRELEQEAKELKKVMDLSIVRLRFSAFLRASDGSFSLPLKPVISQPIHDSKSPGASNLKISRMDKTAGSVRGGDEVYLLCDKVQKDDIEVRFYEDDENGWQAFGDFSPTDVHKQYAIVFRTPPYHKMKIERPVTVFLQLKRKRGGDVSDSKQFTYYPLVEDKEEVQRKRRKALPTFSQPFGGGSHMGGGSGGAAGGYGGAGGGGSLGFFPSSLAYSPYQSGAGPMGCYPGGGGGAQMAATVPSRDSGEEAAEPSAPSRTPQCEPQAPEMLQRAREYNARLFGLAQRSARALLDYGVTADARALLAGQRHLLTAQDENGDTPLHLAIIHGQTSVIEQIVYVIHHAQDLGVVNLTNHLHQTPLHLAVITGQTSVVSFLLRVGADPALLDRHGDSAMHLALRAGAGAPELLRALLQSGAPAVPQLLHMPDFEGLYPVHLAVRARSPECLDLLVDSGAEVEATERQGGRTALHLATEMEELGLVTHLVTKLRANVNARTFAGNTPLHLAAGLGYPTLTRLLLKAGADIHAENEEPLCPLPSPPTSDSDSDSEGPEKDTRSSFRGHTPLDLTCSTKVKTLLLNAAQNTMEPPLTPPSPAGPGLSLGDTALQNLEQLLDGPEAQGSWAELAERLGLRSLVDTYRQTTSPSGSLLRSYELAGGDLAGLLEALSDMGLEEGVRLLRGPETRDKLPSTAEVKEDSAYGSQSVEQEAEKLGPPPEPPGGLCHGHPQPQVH
- Sequence (Q04206 whole entry, looked up): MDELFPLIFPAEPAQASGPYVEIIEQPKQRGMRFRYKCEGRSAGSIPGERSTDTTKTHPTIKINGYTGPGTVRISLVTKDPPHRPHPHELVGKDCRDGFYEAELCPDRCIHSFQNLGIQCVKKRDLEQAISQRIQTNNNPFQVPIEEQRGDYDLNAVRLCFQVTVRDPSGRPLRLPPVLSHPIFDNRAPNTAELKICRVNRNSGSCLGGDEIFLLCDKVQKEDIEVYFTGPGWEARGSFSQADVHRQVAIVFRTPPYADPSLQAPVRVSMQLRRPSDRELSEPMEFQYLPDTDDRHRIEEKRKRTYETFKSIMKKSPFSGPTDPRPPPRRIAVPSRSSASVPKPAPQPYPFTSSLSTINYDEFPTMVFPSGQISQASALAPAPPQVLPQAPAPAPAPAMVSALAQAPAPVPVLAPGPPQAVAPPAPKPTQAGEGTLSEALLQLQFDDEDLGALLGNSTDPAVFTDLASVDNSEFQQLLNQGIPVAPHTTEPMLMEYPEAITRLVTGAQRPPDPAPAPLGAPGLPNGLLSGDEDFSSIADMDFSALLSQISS
- protocol_summary: Inhibition of TNFalpha activated NF-kappaB mediated transactivation of HIV-1 LTR Luc in 5.1 cells at 100 uM
- Assay type: functional, cell-based
metric: inhibition

Study these solved cases before continuing.
1) COc1ccc(CC2(O)c3ccccc3C3=NCCCN32)cc1 (configuration not stated); < 0%
2) O=C1O/C(=C\c2cccc3ccccc23)c2ccccc21; < 0%
3) OC1(Cc2ccc(Cl)c(Cl)c2)c2ccccc2C2=NCCCN21 (configuration not stated); 67.7%
4) O=c1c2ccccc2c(Cc2ccc(Cl)cc2)nn1-c1ccc([N+](=O)[O-])cc1; 54.8%

Your task in this section: give inhibition for each listed record.
1. O=C1O/C(=C\c2ccc(Cl)cc2)c2c1cccc2[N+](=O)[O-]
2. Cn1nc(Cc2ccc(Cl)cc2Cl)c2ccccc2c1=O

OUT:
["< 0%", "< 0%"]

Your task in this section: give inhibition for each listed record.
1. CSc1ccc(/C=C2\OC(=O)c3ccccc32)cc1
2. COc1ccc(Cc2nnc(O)c3ccccc23)cc1
3. Cc1ccc2c(c1)/C(=C/c1ccc(Cl)cc1)OC2=O
4. O=C1O/C(=C\c2ccc3c(c2)OCO3)c2ccccc21
5. Cc1ccc2c(c1)/C(=C/c1ccccc1Cl)OC2=O
6. COc1ccc(/C=C2\OC(=O)c3ccccc32)cc1

OUT:
86.7%
12.6%
96.8%
91.8%
71%
87.6%

----------
- system_tested: Protein Tat (Human immunodeficiency virus type 1 group M subtype B (isolate PCV12)(HIV-1))
- protocol_summary: Inhibition of Tat activity in HeLa cells transfected with Tat-Luc at 100 uM
- Format: functional, cell-based
What inhibition was measured for each of the following?

Study these solved cases before continuing.
1) O=C1O/C(=C\c2ccc(Cl)cc2)c2ccccc21; 84.6%
2) OC1(Cc2ccc3ccccc3c2)c2ccccc2C2=NCCCN21 (stereo not given); 51.2%
3) O=c1c2ccccc2c(Cc2ccc(Cl)cc2)nn1-c1ccccc1; < 0%
4) Oc1nnc(Cc2ccccc2Cl)c2ccccc12; 29.8%
5) Cn1nc(Cc2ccc3ccccc3c2)c2ccccc2c1=O; 11.8%

Your task in this section: give inhibition for each listed record.
1. CSc1ccc(CC2(O)c3ccccc3C3=NCCCN32)cc1 (stereo not given)
2. CCCCn1nc(Cc2ccc(OC)c(OC)c2)c2ccccc2c1=O

OUT:
13.9%
6.7%

Your task in this section: give inhibition for each listed record.
1. CC(C)(C)n1nc(Cc2ccc(Cl)cc2)c2ccccc2c1=O
2. O=C1O/C(=C\c2ccc(Cl)cc2)c2c1cccc2[N+](=O)[O-]
3. Cn1nc(Cc2ccccc2)c2ccccc2c1=O
4. COc1ccc(/C=C2\OC(=O)c3ccccc32)cc1
5. Cc1ccc2c(c1)/C(=C/c1ccccc1Cl)OC2=O

OUT:
1: 11.5%; 2: 63.7%; 3: 11.4%; 4: 74%; 5: < 0%

----------
- system_tested: Protein Tat (Human immunodeficiency virus type 1 group M subtype B (isolate PCV12)(HIV-1))
- protocol_summary: Inhibition of Tat activity in HeLa cells transfected with Tat-Luc at 100 uM
- Type: functional, cell-based
Label true when inhibition is at or above 40%; anything below gets false.

Solved entries:
1. OC1(Cc2ccc(Cl)cc2)c2ccccc2C2=NCCN21 (stereo unspecified); false
2. O=c1c2ccccc2c(Cc2ccc(Cl)cc2)nn1-c1ccc(Br)cc1; false
3. CCn1nc(Cc2ccc(OC)cc2)c2ccccc2c1=O; false
4. Oc1nnc(Cc2ccccc2Cl)c2cc(Cl)c(Cl)cc12; false
5. Oc1nnc(Cc2ccc(Cl)cc2Cl)c2ccccc12; true

Continue with the next compound.
IN: Threshold query (inhibition >= 40%) on CSc1ccc(/C=C2\OC(=O)c3ccccc32)cc1
OUT: true

----------
- protocol_summary: Cytotoxicity by Propidium Iodide staining
What CC50 was measured for each of the following?
One number for each entry, in µM.

Study these solved cases before continuing.
1) CC(C)(C)n1nc(Cc2ccc(Cl)cc2)c2ccccc2c1=O; 72.1
2) CCn1nc(Cc2ccc(OC)cc2)c2ccccc2c1=O; 89.5
3) Cn1nc(Cc2ccc(Cl)cc2Cl)c2ccccc2c1=O; 112
4) COc1cc(Cc2nnc(O)c3ccccc23)cc(OC)c1OC; 135
5) OC1(Cc2ccccc2Cl)c2ccccc2C2=NCCCN21 (configuration not stated); 78.6
6) CCCCn1nc(Cc2ccc(OC)c(OC)c2)c2ccccc2c1=O; 70.3

Your task in this section: give CC50 for each listed record.
1. Oc1nnc(Cc2ccc(Cl)cc2Cl)c2ccccc12
2. OC1(Cc2ccc(Cl)c(Cl)c2)c2ccccc2C2=NCCCN21 (configuration not stated)

OUT:
1: 58; 2: 85.2

----------
- protocol_summary: Cytotoxicity by Propidium Iodide staining
Label key: Met means CC50 under 90 µM; Not met means CC50 of 90 µM or more.

1. C=CCn1nc(Cc2ccc(OC)cc2)c2ccccc2c1=O; Met
2. Oc1nnc(Cc2ccccc2Cl)c2ccccc12; Not met
3. OC1(Cc2ccccc2Cl)c2cc(Cl)c(Cl)cc2C2=NCCN21 (stereo unspecified); Met

IN: Report whether reported CC50 is lower than 90 µM (strictly) for Cn1nc(Cc2ccc3ccccc3c2)c2ccccc2c1=O
OUT: Met

IN: Report whether reported CC50 is lower than 90 µM (strictly) for OC1(Cc2ccc3ccccc3c2)c2ccccc2C2=NCCCN21 (stereo unspecified)
OUT: Met

IN: Report whether reported CC50 is lower than 90 µM (strictly) for Oc1nnc(Cc2ccccc2Cl)c2cc(Cl)c(Cl)cc12
OUT: Not met

IN: Report whether reported CC50 is lower than 90 µM (strictly) for CSc1ccc(/C=C2\OC(=O)c3ccccc32)cc1
OUT: Not met

IN: Report whether reported CC50 is lower than 90 µM (strictly) for Cn1nc(Cc2ccc3c(c2)OCO3)c2ccccc2c1=O
OUT: Not met

IN: Report whether reported CC50 is lower than 90 µM (strictly) for O=c1c2ccccc2c(Cc2ccc(Cl)cc2)nn1-c1ccccc1
OUT: Met

IN: Report whether reported CC50 is lower than 90 µM (strictly) for O=c1c2ccccc2c(Cc2ccc(Cl)cc2)nn1-c1ccc([N+](=O)[O-])cc1
OUT: Not met

----------
- Test system: Human immunodeficiency virus
- protocol_summary: Specificity against NF-kappaB and Tat proteins assessed by activity in Hela Tet-ON assay
- Type: functional
Activity calls are given as the source filed them. The calls are words filed in the database; no cut-off is given here.
# valid calls are active, inactive; nothing else

IN: Call for entry Cc1ccc2c(c1)/C(=C/c1ccc(Cl)cc1)OC2=O :
OUT: active

IN: Call for entry COc1ccc(/C=C2\OC(=O)c3ccccc32)cc1 :
OUT: active

IN: Call for entry OC1(Cc2ccc(Cl)cc2Cl)c2ccccc2C2=NCCN21 (stereo not given) :
OUT: inactive

IN: Call for entry CSc1ccc(/C=C2\OC(=O)c3ccccc32)cc1 :
OUT: active

IN: Call for entry Oc1nnc(Cc2ccc(Cl)cc2Cl)c2ccccc12 :
OUT: inactive

IN: Call for entry Cc1ccc2c(c1)/C(=C/c1ccccc1Cl)OC2=O :
OUT: inactive

----------
- protocol_summary: Cytotoxicity by Propidium Iodide staining
metric: CC50 (µM)
One number for each entry, in µM.

Study these solved cases before continuing.
1) Cn1nc(Cc2cccc3ccccc23)c2ccccc2c1=O; 62.9
2) COc1ccc(CC2(O)c3cc(Cl)c(Cl)cc3C3=NCCN32)cc1 (configuration not stated); 44.1
3) OC1(Cc2ccc(Cl)cc2Cl)c2ccccc2C2=NCCN21 (configuration not stated); 87.5
4) CSc1ccc(CC2(O)c3ccccc3C3=NCCCN32)cc1 (configuration not stated); 142
5) O=C1O/C(=C\c2ccc3c(c2)OCO3)c2ccccc21; 138

Let us examine a further case.
IN: Entry Oc1nnc(Cc2ccc(Cl)c(Cl)c2)c2cc(Cl)c(Cl)cc12 : reported CC50 = ?
OUT: 64.7

----------
- system_tested: Nuclear factor NF-kappa-B complex (Homo sapiens) (UniProt Q00653+P19838+Q04206)
- protocol_summary: Inhibition of TNFalpha activated NF-kappaB mediated transactivation of HIV-1 LTR Luc in 5.1 cells at 100 uM
- Assay type: functional, cell-based
Label 1 when inhibition is at or above 90%; anything below gets -1.

Solved entries:
1) O=c1c2ccccc2c(Cc2ccc(Cl)cc2)nn1-c1ccccc1; -1
2) Cn1nc(Cc2cccc3ccccc23)c2ccccc2c1=O; 1
3) OC1(Cc2ccc(Cl)cc2)c2ccccc2C2=NCCN21 (stereo unspecified); -1

Continue with the next compound.
IN: Threshold query (inhibition >= 90%) on COc1ccc(CC2(O)c3cc(Cl)c(Cl)cc3C3=NCCN32)cc1 (stereo unspecified)
OUT: 1

----------
- system_tested: Protein Tat (Human immunodeficiency virus type 1 group M subtype B (isolate PCV12)(HIV-1)) (UniProt P04326)
- Sequence (whole entry): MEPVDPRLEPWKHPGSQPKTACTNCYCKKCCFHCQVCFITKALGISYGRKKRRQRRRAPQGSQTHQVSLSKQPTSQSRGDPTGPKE
- protocol_summary: Inhibition of Tat activity in HeLa cells transfected with Tat-Luc at 100 uM
- Type: functional, cell-based
What inhibition was measured for each of the following?

Study these solved cases before continuing.
1) O=C1O/C(=C\c2ccc(Cl)cc2)c2cc(Cl)c(Cl)cc21; < 0%
2) COc1cc(Cc2nnc(O)c3ccccc23)cc(OC)c1OC; < 0%
3) COc1ccc(CC2(O)c3cc(Cl)c(Cl)cc3C3=NCCN32)cc1 (centres undefined); 75.3%

IN: Entry COc1ccc(Cc2nnc(O)c3ccccc23)cc1 : reported inhibition = ?
OUT: < 0%
